# credit: ChEMBL document CHEMBL3784958

Test: Half life in healthy volunteer (6 volunteers) at 800 mg, iv administered as single dose by gas liquid chromatographic method
Type: ADME, organism-based
Settings: human, in vivo
measurement_name: half-life (h)

- CCCC(CCC)C(=O)[O-].[Na+] [VALPROATE SODIUM]: 12.8

====

Experiment: Elimination rate constant in epileptic patient (6 patients) at 800 mg, iv administered as single dose by gas liquid chromatographic method
Format: ADME, organism-based
Conditions: human, in vivo
measurement_name: k el (s⁻¹)

• CCCC(CCC)C(=O)[O-].[Na+] [VALPROATE SODIUM] = 2.21e-05

====

Assay: Cmax in epileptic patient (6 patients) at 800 mg, po administered as single dose by gas liquid chromatographic method
Assay type: ADME, organism-based
Set-up: dose 800 mg, route oral
Conditions: human, in vivo
measurement_name: Cmax

- CCCC(CCC)C(=O)[O-].[Na+] [VALPROATE SODIUM]: 71.8 µg/mL

====

Assay: Elimination rate constant in healthy volunteer (6 volunteers) at 800 mg, iv administered as single dose by gas liquid chromatographic method
Assay type: ADME, organism-based
Details: human, in vivo
measurement_name: k el (s⁻¹)

• CCCC(CCC)C(=O)[O-].[Na+] [VALPROATE SODIUM] = 1.52e-05

====

Assay: Volume of distribution (area) in healthy volunteer (6 volunteers) at 800 mg, iv administered as single dose by gas liquid chromatographic method
Assay type: ADME, organism-based
Details: human, in vivo
measurement_name: Vd (L)

- CCCC(CCC)C(=O)[O-].[Na+] [VALPROATE SODIUM]: 10

====

Assay: AUC (0 to infinity) in epileptic patient (6 patients) at 800 mg, iv administered as single dose by gas liquid chromatographic method
Format: ADME, organism-based
Set-up: dose 800 mg, route intravenous, time infinity
Conditions: human, in vivo
measurement_name: AUC(0-inf) (µg·h/mL)

• CCCC(CCC)C(=O)[O-].[Na+] [VALPROATE SODIUM] = 807

====

Experiment: Apparent volume of distribution in healthy volunteer (6 volunteers) at 800 mg, iv administered as single dose by gas liquid chromatographic method
Type: ADME, organism-based
Settings: human, in vivo, read-out: Vd(app)
measurement_name: Vd (L/kg)

* CCCC(CCC)C(=O)[O-].[Na+] [VALPROATE SODIUM] | 0.147
